biological target: Tyrosine-protein phosphatase non-receptor type 1 (Homo sapiens, UniProt P18031); test: Inhibition of recombinant human PTP1B using pNPP as substrate after 30 mins
Sequence (P18031 whole entry): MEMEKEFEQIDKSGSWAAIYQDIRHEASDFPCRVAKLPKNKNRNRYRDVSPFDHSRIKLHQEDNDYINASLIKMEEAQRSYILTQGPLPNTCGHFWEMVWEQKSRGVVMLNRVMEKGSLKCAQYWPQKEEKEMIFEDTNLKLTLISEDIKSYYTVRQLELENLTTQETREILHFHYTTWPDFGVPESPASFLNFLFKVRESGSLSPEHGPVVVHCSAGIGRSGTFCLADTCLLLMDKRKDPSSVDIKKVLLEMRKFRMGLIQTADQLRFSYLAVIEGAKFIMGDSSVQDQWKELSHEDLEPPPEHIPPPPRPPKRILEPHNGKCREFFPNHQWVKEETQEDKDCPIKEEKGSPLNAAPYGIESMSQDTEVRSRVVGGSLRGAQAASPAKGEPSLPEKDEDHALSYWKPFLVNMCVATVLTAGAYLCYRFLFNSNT
IC50: recorded values
Kindly provide the numeric value in µM only, without the unit symbol.

C=C(C)C1=CC[C@@]2(C)[C@H]1[C@H]1CC[C@@H]3[C@@]4(C)CC[C@H](OC(=O)CCCCCCCCCCCCCCC)C(C)(C)[C@@H]4CC[C@@]3(C)[C@]1(C)C[C@@H]2O: 23.6

In: Param readout= IC50; system= Tyrosine-protein phosphatase non-receptor type 1 (Homo sapiens, UniProt P18031); entry= `CC1(C)C[C@@H]2C[C@](C)(O)C(=O)C=C1O2` ; returns value.
Out: 27

In: Param readout= IC50; system= Tyrosine-protein phosphatase non-receptor type 1 (Homo sapiens, UniProt P18031); entry= `C=C1CC/C=C(\COC(C)=O)CC[C@@H](C(C)C)[C@@H](O)[C@@H]1O` ; returns value.
Out: 7.3

In: Param readout= IC50; system= Tyrosine-protein phosphatase non-receptor type 1 (Homo sapiens, UniProt P18031); entry= `CC1(C)[C@@H]2CC(=O)[C@@]1(C)C[C@@H]2O` ; returns value.
Out: 17.6

Where do the numbers come from? From ChEMBL document CHEMBL4043257.
